Molecular target: human PR (Homo sapiens, UniProt P06401)
Sequence (P06401 1-933): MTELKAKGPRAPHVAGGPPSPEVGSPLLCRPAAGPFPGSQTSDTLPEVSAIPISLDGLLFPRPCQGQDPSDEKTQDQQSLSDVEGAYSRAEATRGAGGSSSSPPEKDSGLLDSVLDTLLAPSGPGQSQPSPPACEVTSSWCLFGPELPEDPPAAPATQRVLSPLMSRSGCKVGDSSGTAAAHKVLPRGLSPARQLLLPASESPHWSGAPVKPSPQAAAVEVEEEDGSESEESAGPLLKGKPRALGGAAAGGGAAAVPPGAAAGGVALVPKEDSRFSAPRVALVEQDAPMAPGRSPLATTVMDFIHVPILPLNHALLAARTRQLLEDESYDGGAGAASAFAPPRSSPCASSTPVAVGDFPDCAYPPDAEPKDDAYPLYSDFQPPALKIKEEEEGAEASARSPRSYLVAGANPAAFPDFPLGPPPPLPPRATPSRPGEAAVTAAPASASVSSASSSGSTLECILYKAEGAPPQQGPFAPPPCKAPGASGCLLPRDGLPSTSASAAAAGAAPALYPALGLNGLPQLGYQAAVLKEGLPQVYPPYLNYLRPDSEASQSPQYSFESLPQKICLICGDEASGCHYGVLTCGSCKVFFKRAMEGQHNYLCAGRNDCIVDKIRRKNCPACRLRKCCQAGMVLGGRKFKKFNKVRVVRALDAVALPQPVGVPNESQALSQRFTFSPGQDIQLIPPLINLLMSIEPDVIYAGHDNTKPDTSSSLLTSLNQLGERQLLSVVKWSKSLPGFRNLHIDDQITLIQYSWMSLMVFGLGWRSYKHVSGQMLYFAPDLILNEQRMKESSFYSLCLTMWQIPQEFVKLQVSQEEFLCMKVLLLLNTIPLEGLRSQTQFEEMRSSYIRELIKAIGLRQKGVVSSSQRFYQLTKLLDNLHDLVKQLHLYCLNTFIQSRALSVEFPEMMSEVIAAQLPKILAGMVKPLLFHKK
Assay: PRE-luciferase assay in CV-1 cells
Details: PRE-luciferase agonist mode in CV-1 cells
measurement-type: pEC50
Here pEC50 is given on a logarithmic scale as minus log10 of the concentration in mol/L.

Cc1cc(C(N)=S)sc1-c1ccc2c(c1)C1(CCCCC1)C(=S)N2    9.52

Please fill in: pEC50 reported for "N#Cc1cc(-c2ccc3c(c2)C2(CCCCC2)C(=S)N3)cs1" = 9.70

The value of pEC50 measured for the compound "N#Cc1cc(F)cc(-c2ccc3c(c2)C2(CCCCC2)C(=S)N3)c1" turned out to be 10.00

Looking up "S=C1Nc2ccc(-c3cccc(Cl)c3)cc2C12CCCCC2" , I see its pEC50 listed as 9.10
